# TEST_TARGET: Recombinant human LTC4 synthase (Homo sapiens, UniProt Q16873)
# Construct: made in house; host or cells: Pichia pastoris ('Piccia pastoralis' [sic])
# Sequence (Q16873 1-150): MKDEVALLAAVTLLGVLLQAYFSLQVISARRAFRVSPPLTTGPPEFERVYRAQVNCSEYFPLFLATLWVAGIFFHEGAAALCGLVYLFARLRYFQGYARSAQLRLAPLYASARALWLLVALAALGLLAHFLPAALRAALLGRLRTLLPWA
# EXPERIMENT_DESCRIPTION: In vitro LTC4 synthase assay (LTA4 to LTC4, HTRF detection)
# Format: biochemical
# TEST_CONTEXT: 5 min; total concentration of title compound in the assay 10 μM
# Experimental: In the assay, LTC4 synthase catalyses the reaction where the substrate LTA4 is converted to LTC4. Recombinant human LTC4 synthase is expressed in Piccia pastoralis and the purified enzyme is dissolved in 25 mM tris-buffer pH 7.8 supplemented with 0.1 mM glutathione (GSH) and stored at −80° C. The assay is performed in phosphate buffered saline (PBS) pH 7.4 and 5 mM GSH in 384-well plates. […] 1. […] 10 μL of the incubation mixture is analysed using homogenous time resolved fluorescent (HTRF) detection.
OUTCOME_MEASURE: inhibition at 10 µM (%)

>  <COMPOUND>
CN(c1ccc(Cl)cc1)c1ccc(C(=O)c2ccc(NC(=O)c3cccc(Cl)c3)cc2)c(C(=O)O)c1 [Example 4:2]

>  <TEST_TARGET>
Recombinant human LTC4 synthase (Homo sapiens, UniProt Q16873)

>  <VALUE_UNITS>
%

>  <inhibition at 10 µM>
100

$$$$
>  <COMPOUND>
CN(c1ccc(Cl)cc1)c1ccc(C(=O)c2ccc(Nc3ccc(Cl)cc3)cc2)c(C(=O)O)c1 [6:3]

>  <TEST_TARGET>
Recombinant human LTC4 synthase (Homo sapiens, UniProt Q16873)

>  <VALUE_UNITS>
%

>  <inhibition at 10 µM>
99

$$$$
>  <COMPOUND>
CCCCOc1ccc(S(=O)(=O)Nc2cc(C(=O)O)cc(C(=O)c3ccc(Nc4ccc(Cl)cc4)cc3)c2)cc1 [Example 7]

>  <TEST_TARGET>
Recombinant human LTC4 synthase (Homo sapiens, UniProt Q16873)

>  <VALUE_UNITS>
%

>  <inhibition at 10 µM>
98

$$$$
>  <COMPOUND>
CCCCCCC(=O)Nc1cc(C(=O)O)cc(C(=O)c2ccc(N(C)c3ccc(Cl)cc3)cc2)c1 [Example 1:2]

>  <TEST_TARGET>
Recombinant human LTC4 synthase (Homo sapiens, UniProt Q16873)

>  <VALUE_UNITS>
%

>  <inhibition at 10 µM>
94

$$$$
>  <COMPOUND>
O=C(O)c1cc(Nc2ccc(Cl)cc2)ccc1C(=O)c1ccc(Nc2ccc(C(=O)C3CC3)cc2)cc1 [6:2]

>  <TEST_TARGET>
Recombinant human LTC4 synthase (Homo sapiens, UniProt Q16873)

>  <VALUE_UNITS>
%

>  <inhibition at 10 µM>
100

$$$$
>  <COMPOUND>
O=C(O)c1cc(Nc2ccc(Cl)cc2)cc(C(=O)c2ccc(Nc3ccc(Cl)cc3)cc2)c1 [Example 3]

>  <TEST_TARGET>
Recombinant human LTC4 synthase (Homo sapiens, UniProt Q16873)

>  <VALUE_UNITS>
%

>  <inhibition at 10 µM>
99

$$$$
>  <COMPOUND>
CCCCCCC(=O)Nc1ccc(C(=O)c2ccc(Nc3ccc(Cl)cc3)cc2C(=O)O)cc1 [Example 4:1]

>  <TEST_TARGET>
Recombinant human LTC4 synthase (Homo sapiens, UniProt Q16873)

>  <VALUE_UNITS>
%

>  <inhibition at 10 µM>
98

$$$$
>  <COMPOUND>
O=C(O)c1cc(Nc2ccc(Cl)cc2)ccc1C(=O)c1ccc(Nc2ccc(Cl)cc2)cc1 [Example 6:1]

>  <TEST_TARGET>
Recombinant human LTC4 synthase (Homo sapiens, UniProt Q16873)

>  <VALUE_UNITS>
%

>  <inhibition at 10 µM>
96

$$$$
>  <COMPOUND>
CN(c1ccc(Cl)cc1)c1ccc(C(=O)c2ccc(NS(=O)(=O)c3ccc(OC(F)(F)F)cc3)cc2)c(C(=O)O)c1 [Example 5]

>  <TEST_TARGET>
Recombinant human LTC4 synthase (Homo sapiens, UniProt Q16873)

>  <VALUE_UNITS>
%

>  <inhibition at 10 µM>
100

$$$$

* * *

# TEST_TARGET: Recombinant human LTC4 synthase (Homo sapiens, UniProt Q16873)
# EXPERIMENT_DESCRIPTION: In vitro LTC4 synthase assay (LTA4 to LTC4, HTRF detection)
# Protocol: In the assay, LTC4 synthase catalyses the reaction where the substrate LTA4 is converted to LTC4. Recombinant human LTC4 synthase is expressed in Piccia pastoralis and the purified enzyme is dissolved in 25 mM tris-buffer pH 7.8 supplemented with 0.1 mM glutathione (GSH) and stored at −80° C. The assay is performed in phosphate buffered saline (PBS) pH 7.4 and 5 mM GSH in 384-well plates. […] 1. […] 10 μL of the incubation mixture is analysed using homogenous time resolved fluorescent (HTRF) detection.
pIC50: −log10 of the molar value.
OUTCOME_MEASURE: pIC50

Field: example entries. Status: answers known.
>  <COMPOUND_STRUCTURE>
CN(c1ccc(Cl)cc1)c1ccc(C(=O)c2cc(NC(=O)c3cccc(Cl)c3)cc(C(=O)O)c2)nc1

>  <pIC50>
6.56

$$$$
>  <COMPOUND_STRUCTURE>
CN(c1ccc(Cl)cc1)c1ccc(C(=O)c2cc(Nc3ccccc3F)cc(C(=O)O)c2)cc1

>  <pIC50>
6.79

$$$$

(I) CN(c1ccc(Cl)cc1)c1ccc(C(=O)c2cc(C(=O)O)cc(C(=O)Nc3ccccc3)c2)nc1
(II) CN(c1ccc(Cl)cc1)c1ccc(C(=O)c2cc(C(=O)O)cc(C(=O)c3ccccc3)c2)nc1
Query: Compare pIC50: is it lower for I or for II ? Answer by stating the label of the chosen item.
Result: I
(I: 6.35, II: 6.84)

* * *

# TEST_TARGET: Recombinant human LTC4 synthase (Homo sapiens, UniProt Q16873)
# EXPERIMENT_DESCRIPTION: In vitro LTC4 synthase assay (LTA4 to LTC4, HTRF detection)
pIC50: −log10 of the molar value.
OUTCOME_MEASURE: pIC50

Field: example entries. Status: answers known.
>  <MOLECULE>
CC(C)OCC(O)CN(c1ccccc1)c1cc(C(=O)O)cc(C(=O)c2ccc(N(C)c3ccc(Cl)cc3)cc2)c1 (stereo not shown)

>  <ASSAY_RESULT>
6.74

$$$$
>  <MOLECULE>
CN(c1ccc(Cl)cc1)c1ccc(C(=O)c2cc(C(=O)O)cc(C(=O)Nc3ccccc3Cl)c2)nc1

>  <ASSAY_RESULT>
6.27

$$$$
>  <MOLECULE>
CC(C)CN(c1ccccc1)c1cc(C(=O)O)cc(C(=O)c2ccc(N(C)c3ccc(Cl)cc3)cc2)c1

>  <ASSAY_RESULT>
6.75

$$$$
>  <MOLECULE>
CN(c1ccc(Cl)cc1)c1ccc(C(=O)c2cc(Cc3ccccc3)cc(C(=O)O)c2)nc1

>  <ASSAY_RESULT>
6.53

$$$$
>  <MOLECULE>
CN(c1ccc(Cl)cc1)c1ccc(C(=O)c2cc(C(=O)O)cc(N3CCc4ccccc4C3)c2)nc1

>  <ASSAY_RESULT>
6.27

$$$$

(A) CN(c1ccc(Cl)cc1)c1ccc(C(=O)c2cc(Oc3ccc(F)c(F)c3)cc(C(=O)O)c2)cc1
(B) CN(c1ccc(Cl)cc1)c1ccc(C(=O)c2cc(Nc3ccc4c(c3)OCO4)cc(C(=O)O)c2)nc1
(C) CC(=O)N(c1ccccc1)c1cc(C(=O)O)cc(C(=O)c2ccc(N(C)c3ccc(Cl)cc3)cn2)c1
(D) COCCN(c1cc(C(=O)O)cc(C(=O)c2ccc(N(C)c3ccc(Cl)cc3)cc2)c1)c1ccccc1F
Query: Sort the molecules on pIC50; start with the lowest figure. # the answer lists labels in the order requested
Result: B, C, D, A

* * *

# TEST_TARGET: Recombinant human LTC4 synthase (Homo sapiens, UniProt Q16873)
# Sequence (Q16873 1-150): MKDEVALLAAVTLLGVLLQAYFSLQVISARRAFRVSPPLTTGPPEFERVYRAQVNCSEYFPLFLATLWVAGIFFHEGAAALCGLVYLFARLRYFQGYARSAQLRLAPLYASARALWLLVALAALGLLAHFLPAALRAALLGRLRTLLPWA
# EXPERIMENT_DESCRIPTION: In vitro LTC4 synthase assay (LTA4 to LTC4, HTRF detection)
OUTCOME_MEASURE: IC50 (nM)

>  <COMPOUND>
CCN(CC)c1ccc(Oc2cc(C(=O)O)cc(C(=O)c3ccc(N(C)c4ccc(Cl)cc4)cc3)c2)cc1 [8:15]

>  <IC50, nM>
183

$$$$
>  <COMPOUND>
CN(c1ccc(Cl)cc1)c1ccc(C(=O)c2cc(C(=O)O)cc(N(C)c3ccccc3F)c2)cc1 [10:24]

>  <IC50, nM>
40

$$$$

(1) C#CCN(c1ccccc1)c1cc(C(=O)O)cc(C(=O)c2ccc(N(C)c3ccc(Cl)cc3)cn2)c1 [9:8]
(2) CN(c1ccc(Cl)cc1)c1ccc(C(=O)c2cc(C(=O)O)cc(C(=O)Nc3ccccc3)c2)cc1 [Example 2:11]
Query: Please tell me which of the two, 1 or 2 , has the higher reported IC50 value. Answer by stating the label of the chosen item.
Result: 2
(2: 694 nM, 1: 43 nM)
